- Test system: Hepatitis C virus
- protocol-summary: Antiviral activity against HCV genotype 1a replicon infected in human HuH7 cells after 3 days by renilla luciferase assay
- Type: functional, organism-based, Hepacivirus hominis
- conditions: subtype 1a, Huh-7, 72 h
parameter: pEC50
Please treat pEC50 as minus the base-10 logarithm of the molar concentration.

Use the examples below as a reference point.
| compound | test-target | recorded-result |
| --- | --- | --- |
| CCCCCCCCCCCCCCCCOCCCOP(=O)(O)CO[C@@H](Cn1cnc2c(N)ncnc21)C(=O)OC | Hepatitis C virus | 4.69 |
| CCOC(=O)[C@H](Cc1ccccc1)NP(=O)(CO[C@@H](Cn1cnc2c(N)ncnc21)C(=O)OC)Oc1ccccc1 (stereo partly specified) | Hepatitis C virus | 6.10 |

Continue with the next compound.
Entry under review: CCOC(=O)[C@H](Cc1ccccc1)NP(=O)(CO[C@@H](Cn1cnc2c(N)ncnc21)C(=O)OC)N[C@@H](Cc1ccccc1)C(=O)OCC . Reported pEC50? 6.22

====

- protocol-summary: Cytotoxicity against human HuH7 infected with HCV genotype 2a cells after 3 days by calcein-AM dye based fluorescence analysis
- Format: cell-based, Huh-7
- conditions: HuH7 cells infected with HCV genotype 2a
Item-by-item account of CC50 at 72 h

Please report the recorded CC50 at 72 h for CCOC(=O)[C@H](C)NC(=O)[C@H](Cn1cnc2c(N)ncnc21)OCP(=O)(N[C@@H](C)C(=O)OCC)N[C@@H](C)C(=O)OCC . > 44.4 µM

For the compound shown here, CCOC(=O)[C@H](Cc1ccccc1)NP(=O)(CO[C@@H](Cn1cnc2c(N)ncnc21)C(=O)OC)Oc1ccccc1 (stereo partly specified) , give the reported CC50 at 72 h. 25.3 µM

Which CC50 at 72 h value belongs to CCOC(=O)[C@H](C)NP(=O)(CO[C@@H](Cn1cnc2c(N)ncnc21)C(=O)OC)N[C@@H](C)C(=O)OCC ? > 44.4 µM

# input compound: Nc1ncnc2c1ncn2C[C@H](OCP(=O)(O)O)C(=O)O ; wanted: its CC50 at 72 h > 44.4 µM

Entry under review: CCCCCCCCCCCCCCCCOCCCOP(=O)(O)CO[C@@H](Cn1cnc2c(N)ncnc21)C(=O)OC . Reported CC50 at 72 h? > 44.4 µM

Fill blank: measured CC50 at 72 h of the compound CCOC(=O)[C@H](Cc1ccccc1)NP(=O)(CO[C@@H](Cn1cnc2c(N)ncnc21)C(=O)OC)N[C@@H](Cc1ccccc1)C(=O)OCC is ____. 12.6 µM

====

- protocol-summary: Cytotoxicity against human HuH7 infected with HCV genotype 1b cells after 3 days by calcein-AM dye based fluorescence analysis
- Assay type: cell-based, Huh-7
- conditions: HuH7 cells infected with HCV genotype 1b
parameter: CC50 at 72 h

Quick one: CC50 at 72 h of CCCCCCCCCCCCCCCCOCCCOP(=O)(O)CO[C@@H](Cn1cnc2c(N)ncnc21)C(=O)OC ? > 44.4 µM

State the recorded CC50 at 72 h for this entry: Nc1ncnc2c1ncn2C[C@H](OCP(=O)(O)O)C(=O)O > 44.4 µM

Endpoint output: CC50 at 72 h of CCOC(=O)[C@H](Cc1ccccc1)NP(=O)(CO[C@@H](Cn1cnc2c(N)ncnc21)C(=O)OC)N[C@@H](Cc1ccccc1)C(=O)OCC . Value? 30.4 µM

Name the recorded CC50 at 72 h for CCOC(=O)[C@H](C)NP(=O)(CO[C@@H](Cn1cnc2c(N)ncnc21)C(=O)OC)N[C@@H](C)C(=O)OCC . > 44.4 µM

Would you kindly share the measured CC50 at 72 h for CCOC(=O)[C@H](Cc1ccccc1)NP(=O)(CO[C@@H](Cn1cnc2c(N)ncnc21)C(=O)OC)Oc1ccccc1 (stereo partly specified) ? > 44.4 µM

Give the measured CC50 at 72 h of CCOC(=O)[C@H](C)NC(=O)[C@H](Cn1cnc2c(N)ncnc21)OCP(=O)(N[C@@H](C)C(=O)OCC)N[C@@H](C)C(=O)OCC . > 44.4 µM
